Every entry's value here was drawn from the supplement of paper PMC6522484.

I'd be grateful if you could share measured TCF/Wnt firefly luciferase reporter signal for these entries.
System: DLD1
Procedure summary: TCF/Wnt firefly luciferase reporter signal relative to plate median (fraction of plate median); higher = higher Wnt reporter signal
Condition context: 10 µM; treatment time 24 h; reporter: 7TFP
One number for each entry.

// solved cases for TCF/Wnt firefly luciferase reporter signal follow
Chem smiles | Result value
CC(C)(C)c1nc(-c2cccc(NS(=O)(=O)c3c(F)cccc3F)c2F)c(-c2ccnc(N)n2)s1 | 1.18
COc1ccc(-c2ccc3c(N4CCOCC4)nc(N4C[C@@H](C)O[C@@H](C)C4)nc3n2)cc1CO | 0.392
Cc1cc2c(F)c(Oc3ncnn4cc(OC[C@@H](C)O)c(C)c34)ccc2[nH]1 | 0.846
Cc1cc(Nc2cc(CN3CCOCC3)c3nc(C)c(Cc4ccc(Cl)cc4F)n3n2)n[nH]1 | 1.27

Task item: What TCF/Wnt firefly luciferase reporter signal value was documented for this compound, CCC[C@H](NC(=O)/C(C#N)=C/c1cccc(Br)n1)c1ccccc1 ?
Reply: 0.0449

###

System: DLD1
Procedure summary: TCF/Wnt firefly luciferase reporter signal relative to plate median (fraction of plate median); higher = higher Wnt reporter signal
Condition context: 5 µM; treatment time 24 h; reporter: 7TFP
Answer each item with its documented TCF/Wnt firefly luciferase reporter signal.
One number for each entry.

Compound | Result value
O=C(O)c1cc(/N=N/c2ccc(S(=O)(=O)Nc3ccccn3)cc2)ccc1O | 0.899
CC(=O)OC1CCC2(O)CC1(C)CCC1C2CC1(C)C (centres undefined) | 0.913
C/C=C/C/C=C/CCC(=O)[C@H]1O[C@H]1C(N)=O | 1.01

Task item: Need TCF/Wnt firefly luciferase reporter signal of CN1Cc2c(N)cccc2C(c2ccccc2)C1 (centres undefined) , thanks.
Reply: 1.02

###

Test system: SW480
Procedure summary: cell viability (CellTiter-Glo) relative to plate median (fraction of plate median); higher = more viable cells
Condition context: 5 µM; treatment time 24 h; reporter: 7TFP
Exercise: state measured cell viability for each of the compounds provided.
One number for each entry.

Reference set, count: 3
Compound | Result value
O=C(O)CCCCCCCC(=O)O | 1.09
COc1cc(C(N)=O)ccc1O [4-Hydroxy-3-methoxy-benzoic acid amide, Vanillic acid amide] | 1.06
COc1ccc2c(=O)ccoc2c1 | 0.942

Task item: Given CCOc1ccc(NC(C)=O)cc1 , state its recorded cell viability.
Reply: 1

###

Test system: SW480
Procedure summary: TCF/Wnt firefly luciferase reporter signal relative to plate median (fraction of plate median); higher = higher Wnt reporter signal
Condition context: 5 µM; treatment time 24 h; reporter: 7TFP
TCF/Wnt firefly luciferase reporter signal below 1 gives False; TCF/Wnt firefly luciferase reporter signal at or above it gives True.

Example cases with answers are listed next.
Chem smiles | Class
O=C1OC2(c3ccc(O)cc3Oc3cc(O)ccc32)c2ccccc21 | True
CC[C@H](C)[C@H](N)C1=N[C@H](C(=O)N[C@@H](CC(C)C)C(=O)N[C@H](CCC(=O)O)C(=O)N[C@H](C(=O)N[C@H]2CCCCNC(=O)[C@H](CC(N)=O)NC(=O)[C@@H](CC(=O)O)NC(=O)[C@H](Cc3cnc[nH]3)NC(=O)[C@@H](Cc3ccccc3)NC(=O)[C@H]([C@@H](C)CC)NC(=O)[C@@H](CCCN)NC2=O)[C@@H](C)CC)CS1 | True
CC(=O)O[C@H]1C[C@@H](OC(C)=O)C(C)(C)[C@@H]2C[C@@H](OC(C)=O)[C@]3(C)[C@H](CC[C@@]4(C)[C@H](c5ccoc5)OC(=O)[C@H]5O[C@@]534)[C@@]12C | True

Okay, next one:
Task item: Determine whether measured TCF/Wnt firefly luciferase reporter signal meets or exceeds 1 for COC(=O)C[C@H]1C(C)(C)C(=O)[C@@H]2CC3=C(CC[C@]4(C)C3=CC(=O)O[C@H]4c3ccoc3)[C@@]1(C)C2=O
Reply: False

###

Assign cell viability to each entry below.
System: DLD1
Procedure summary: cell viability (CellTiter-Glo) relative to plate median (fraction of plate median); higher = more viable cells
Condition context: 5 µM; treatment time 24 h; reporter: 7TFP
Give bare numbers.

Chem smiles | cell viability
CCOC(=O)[C@H](CCc1ccccc1)N[C@@H](C)C(=O)N1CCC[C@H]1C(=O)O | 0.971

Please give cell viability, item by item, for the list that follows.
1. COC(=O)c1c(C)cc(O)cc1O
2. CC[C@@H](C(=O)[C@@H](C)[C@@H](O)[C@H](C)CCc1ccc(C)c(O)c1C(=O)O)[C@H]1O[C@](CC)([C@H]2CC[C@](O)(CC)[C@H](C)O2)C[C@@H]1C

Reply:
1: 0.999; 2: 0.985

###

Record form. Attribute: cell viability. Fill in for each entry.
Test system: DLD1
Procedure summary: cell viability (CellTiter-Glo) relative to plate median (fraction of plate median); higher = more viable cells
Condition context: 5 µM; treatment time 24 h; reporter: 7TFP
Give bare numbers.

Molecule | Target under test | cell viability
COc1ccc2ccc(=O)oc2c1 | DLD1 | 1.02
CC1=C(C/C=C(\C)CCC[C@H](C)CCC[C@H](C)CCCC(C)C)C(=O)c2ccccc2C1=O | DLD1 | 0.995
CC(=O)/C=C\[C@@H]1[C@@]2(C)CCCC(C)(C)C2CC[C@@]1(C)O (stereo not given in full) | DLD1 | 1
CN(C)CCC(c1ccccc1)c1ccccn1 (stereo not given) | DLD1 | 0.973

# ---- query molecule ----
Task item: Given the entry CCCOc1ccccc1-c1nc2[nH]nnc2c(=O)[nH]1 , report its measured cell viability.
Reply: 0.985

###

Test system: SW480
Procedure summary: TCF/Wnt firefly luciferase reporter signal relative to plate median (fraction of plate median); higher = higher Wnt reporter signal
Condition context: 5 µM; treatment time 24 h; reporter: 7TFP
Metric name: TCF/Wnt firefly luciferase reporter signal
Answers are plain numbers.

Molecule | Result value
CCCc1ncc(C[n+]2ccccc2C)c(N)n1 | 0.987
C[n+]1c2cc(N)ccc2cc2ccc(N)cc21 | 1.01
CCN1CCCC(OC(=O)C(c2ccccc2)c2ccccc2)C1 (stereo not given) | 1.01
CS(=O)(=O)Nc1ccc([N+](=O)[O-])cc1Oc1ccccc1 | 0.981

For the next question, use this molecule.
Task item: Could you tell me which TCF/Wnt firefly luciferase reporter signal is on file for COc1ccc2ccc(=O)oc2c1CC=C(C)C ?
Reply: 0.99

###

Tested on: SW480
Procedure summary: TCF/Wnt firefly luciferase reporter signal relative to plate median (fraction of plate median); higher = higher Wnt reporter signal
Condition context: 5 µM; treatment time 24 h; reporter: 7TFP
I'd appreciate it if you could supply TCF/Wnt firefly luciferase reporter signal values for the items below.
Give bare numbers.

Solved entries (count: 2):
Compound | Target under test | Result value
COC1=CC(=O)c2c(O)c3c(c(O)c2C1=O)OC1(Oc2c(cc4cc(C)oc(=O)c4c2O)C2OC21)C3O (stereo not drawn) | SW480 | 1.01
CC(=O)O[C@H]1CC[C@]2(C)[C@H]3CC[C@]4(C)C(=CC[C@@]5(C(=O)O)CCC(C)(C)C[C@H]54)[C@]3(C)CC[C@H]2C1(C)C | SW480 | 1.02

Task item: Find the recorded TCF/Wnt firefly luciferase reporter signal belonging to COc1cc(O)c2c(=O)cc(C)oc2c1CC=C(C)C and report it.
Reply: 0.991

###

Assignment: determine reported TCF/Wnt firefly luciferase reporter signal for the given molecules.
Tested on: DLD1
Procedure summary: TCF/Wnt firefly luciferase reporter signal relative to plate median (fraction of plate median); higher = higher Wnt reporter signal
Condition context: 5 µM; treatment time 24 h; reporter: 7TFP

Molecule | Result value
C[n+]1cccc(C(=O)[O-])c1 | 1.15
CCCCC(CC)CN=C(N)N=C(N)NCCCCCCNC(N)=NC(N)=NCC(CC)CCCC (stereo not drawn) | 1.14
C=C[C@@](C)(O)CCC1C(=C)CCC2[C@@](C)(CO)CCC[C@]12C (stereo partly drawn) | 0.967
CCN(CC)C(=S)SSC(=S)N(CC)CC | 1.02
C=CCc1ccc(OC(=O)c2ccccc2)c(OC)c1 | 1.22

I need TCF/Wnt firefly luciferase reporter signal for every entry listed below, if you could help.
1. CN(C)C(=N)NC(=N)N
2. COc1ccc(C(=O)Oc2ccc(/C=N/NC(N)=O)cc2)cc1
3. Cc1cc(O)c(C=O)c2c1C(=O)Oc1c(COC(=O)/C=C/C(=O)O)c(O)c(C(=O)O)c(C)c1O2

Reply:
1: 1.03; 2: 0.938; 3: 0.933

Your task in this section: give TCF/Wnt firefly luciferase reporter signal for each listed record.
1. C=CCc1ccccc1OCC(O)CNC(C)C (stereo not drawn)
2. COC(=O)C[C@H]1C(C)(C)[C@@H](O)[C@@H]2CC3=C4CC(O)O[C@@H](c5ccoc5)[C@]4(C)CCC3[C@@]1(C)C2=O (stereo partly drawn) [3,16-DIDEOXYMEXICANOLIDE-3beta-DIOL]
3. CC(=O)OCC(=O)[C@@]12OC3(CCCC3)O[C@@H]1C[C@H]1[C@@H]3CCC4=CC(=O)C=C[C@]4(C)[C@@]3(F)[C@@H](O)C[C@@]12C

Reply:
1. 1.1
2. 1.02
3. 0.82

// for each molecule below, give its TCF/Wnt firefly luciferase reporter signal
1. CN(C)CCCN1c2ccccc2CCc2ccccc21
2. O=C(O)c1cc(O)ccc1O

Reply:
1. 0.881
2. 1.04
